System: UACC-62
assay_protocol: NCI tumour cell line growth inhibition, 48 h
The source made the active and inactive calls. Rule as the data show it: active = GI50 up to about 1.1 µM and inactive = higher.
outcome_measure: GI50

The examples below pair each entry with its known result.
[[record]]
compound = "NC(=O)SCCC(N)C(=O)O (centres undefined)"
outcome_measure = "GI50"
value_measured = "> 100 µM (inactive)"

[[record]]
compound = "NC(=O)c1cc2ccc(O)cc2o/c1=N/c1ccccc1"
outcome_measure = "GI50"
value_measured = "28.5 µM (inactive)"

[[record]]
compound = "CCCC(=O)OC[n+]1cccc(-c2c(COC(=O)NC(C)C)c(COC(=O)NC(C)C)c3n2CCC3)c1"
outcome_measure = "GI50"
value_measured = "20.1 µM (inactive)"


// switching to the query compound
Requested read-out: GI50. Entry: C[N+]1(C)[C@@H]2CC[C@H]1C[C@@H](OC(=O)C(CO)c1ccccc1)C2 (some centres undefined) [ATROPINE METHYLBROMIDE]
> 100 µM (inactive)
